// provenance: the supplement of paper PMC8728848

biological target: GlcNAc(b1-2)Gal(b1-3)GalNAc; assay: glycan array binding signal (z-score within array); higher = stronger binding; settings: glycan notation: IUPAC condensed, linker removed
This is one part of a sample in which the strongest signals are shown more often than they occur.
METRIC NAME: glycan array binding signal (z-score)

Epa7 (Candida glabrata), Q6DTM6_CANGB (protein) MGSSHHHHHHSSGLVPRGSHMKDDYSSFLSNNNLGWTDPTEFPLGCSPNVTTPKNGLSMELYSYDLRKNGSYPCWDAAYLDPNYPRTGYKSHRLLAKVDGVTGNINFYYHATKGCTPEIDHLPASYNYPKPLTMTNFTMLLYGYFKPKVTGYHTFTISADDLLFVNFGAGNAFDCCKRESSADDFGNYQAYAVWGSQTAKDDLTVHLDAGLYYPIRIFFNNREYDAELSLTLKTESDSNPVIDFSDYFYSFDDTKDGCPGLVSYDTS ... -0.197

Below are 4 binders. Give each one its glycan array binding signal (z-score).
1. Wzz (Escherichia coli) (protein) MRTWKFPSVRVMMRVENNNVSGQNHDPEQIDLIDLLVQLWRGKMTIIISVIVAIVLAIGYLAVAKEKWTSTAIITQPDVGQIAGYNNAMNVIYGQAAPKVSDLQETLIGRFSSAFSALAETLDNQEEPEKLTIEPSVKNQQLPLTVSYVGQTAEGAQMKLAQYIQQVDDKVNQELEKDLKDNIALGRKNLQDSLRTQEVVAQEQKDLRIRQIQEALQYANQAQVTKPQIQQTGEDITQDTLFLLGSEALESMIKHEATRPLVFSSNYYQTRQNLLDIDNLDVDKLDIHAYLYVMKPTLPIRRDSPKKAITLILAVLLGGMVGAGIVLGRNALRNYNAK
2. EfCBM33A (Enterococcus faecalis), Q838S1 (protein) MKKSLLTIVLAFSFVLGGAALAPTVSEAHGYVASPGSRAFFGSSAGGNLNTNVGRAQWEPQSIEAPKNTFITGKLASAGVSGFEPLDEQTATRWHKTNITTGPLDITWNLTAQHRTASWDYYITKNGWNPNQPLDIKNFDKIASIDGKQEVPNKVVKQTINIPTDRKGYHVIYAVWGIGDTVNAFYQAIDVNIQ
3. CBM32-4 (Clostridium perfringens), P26831 (protein) MGSSHHHHHHSSGLVPRGSHMASVYEPSLVDAYVGDDGAKKAVDGDLKTRVKFLGAPSTGDTIVYDLGQEILVDNLKYVVLDTEVDHVRDGKIQLSLDGETWTDAINIGDGVENGVDDMFSTPLKNGYKHGNQSGGIVPIDSAYVEGDNLNQKARYVRILFTAPYRHRWTVINELMINNGEYIPTVNDPT
4. BSR4 (Toxoplasma gondii), Q95NL6 (protein) MVMMGSMQQRRGGLRSNARQLLAVCMSGVVFFSSGQAVADNLLEGLLHRTLQQQVEVTSRLTVAGSDAKCDFFTPATQDSPPVSGSLTLSKGRMTATFECSATQALSISTIPTNIEQNVCDPKKTTNGTVCQFGANGSAGTEVTLKDLLETDRIVNWKVNEQREESNKSQKWSLELHNEDLPLTDKAFVVGCQATSAARGTESGKTAACKLTVNVEARASSLAENNVVTCAYGKGSNPNPVEVEMSTEKNTLTINCGSDGSLQPTTYAEEYCVADSKDVNRCSTTRFVEIFPKFLKSWWVTETQKRTSATLTIPQTDLPEADQQFLVGCVPKKTAPEDPKKDKESGTETGAPTSCTVLVTVKAASSASHASPTVQILAAASSAAA

1. -0.1
2. -0.504
3. -0.264
4. 0.324

Epa15 (Candida glabrata) (protein) MGSSHHHHHHSSGLVPRGSHMASDPTTFPLGCSPEFTKTKKGLSMELYRYDYLPPGSYPCWDSAYLNPSYPRTGYKAKKLIATVDGVSGDINFKFNPKFGCKAIPDYLPSNFNYHEPITITNFTMILYGYFMPKTTAFHTFYVTADDLLFMNFGAGNAFDCCRREETADKFGNYAAYSVWGKKSLKNELTVYLHTGVYYPIRLFYNNRDYIAQLDIRFKTEHSNAIITNFTDYFYSVDDSSLGCPGLI yielded glycan array binding signal (z-score) of -0.411
